Provenance of the data: patent US9248145B2

- targetUnderTest: recombinant ARS2 (Sorghum bicolor)
- Sequence (C5YRS1 entry or part of it): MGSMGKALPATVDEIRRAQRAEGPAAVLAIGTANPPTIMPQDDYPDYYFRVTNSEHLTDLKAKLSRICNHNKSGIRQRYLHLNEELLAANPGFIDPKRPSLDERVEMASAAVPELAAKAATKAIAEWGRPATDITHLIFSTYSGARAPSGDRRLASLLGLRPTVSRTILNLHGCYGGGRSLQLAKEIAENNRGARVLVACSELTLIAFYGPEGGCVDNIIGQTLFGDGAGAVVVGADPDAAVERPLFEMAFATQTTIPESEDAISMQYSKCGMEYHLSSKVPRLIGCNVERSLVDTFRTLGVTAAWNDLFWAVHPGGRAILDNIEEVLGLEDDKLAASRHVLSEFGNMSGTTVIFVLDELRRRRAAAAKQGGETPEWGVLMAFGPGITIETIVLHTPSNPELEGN
- assayText: Polyketide synthase enzyme assay, 5-alkylresorcinol formation (GC-MS, m/z 268)
- Format: biochemical
- measurementConditions: malonyl-CoA extender
metric: activity as starter unit (in words)

>>> reportedresult("CC(C)CC(=O)SCCNC(=O)CCNC(=O)[C@H](O)C(C)(C)COP(=O)(O)OP(=O)(O)OC[C@H]1O[C@@H](n2cnc3c(N)ncnc32)[C@H](O)[C@@H]1OP(=O)(O)O")
"No activity"
>>> reportedresult("CC(C)C(=O)SCCNC(=O)CCNC(=O)[C@H](O)C(C)(C)COP(=O)(O)OP(=O)(O)OC[C@H]1O[C@@H](n2cnc3c(N)ncnc32)[C@H](O)[C@@H]1OP(=O)(O)O")
"No activity"
>>> reportedresult("CC(C)(COP(=O)(O)OP(=O)(O)OC[C@H]1O[C@@H](n2cnc3c(N)ncnc32)[C@H](O)[C@@H]1OP(=O)(O)O)[C@@H](O)C(=O)NCCC(=O)NCCSC(=O)c1ccccc1")
"No activity"

* * *

- targetUnderTest: recombinant ARS1 (Sorghum bicolor, UniProt C5Y4Z2)
- Sequence (C5Y4Z2 entry or part of it): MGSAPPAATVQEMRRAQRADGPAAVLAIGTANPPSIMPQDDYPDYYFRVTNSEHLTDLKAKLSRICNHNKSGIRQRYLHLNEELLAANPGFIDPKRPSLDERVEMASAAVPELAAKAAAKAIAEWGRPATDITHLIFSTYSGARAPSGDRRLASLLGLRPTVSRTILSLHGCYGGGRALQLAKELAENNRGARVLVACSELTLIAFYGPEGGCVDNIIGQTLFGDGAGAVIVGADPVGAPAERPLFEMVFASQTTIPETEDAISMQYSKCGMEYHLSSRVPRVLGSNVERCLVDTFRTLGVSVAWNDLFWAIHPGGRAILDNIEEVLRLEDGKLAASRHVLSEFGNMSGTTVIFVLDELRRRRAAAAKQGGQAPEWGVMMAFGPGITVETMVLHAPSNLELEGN
- assayText: Polyketide synthase enzyme assay, 5-alkylresorcinol formation (GC-MS, m/z 268)
- Type: biochemical
- measurementConditions: malonyl-CoA extender
metric: activity as starter unit (in words)

>>> reportedresult("CC(C)CC(=O)SCCNC(=O)CCNC(=O)[C@H](O)C(C)(C)COP(=O)(O)OP(=O)(O)OC[C@H]1O[C@@H](n2cnc3c(N)ncnc32)[C@H](O)[C@@H]1OP(=O)(O)O")
"No activity"
>>> reportedresult("CC(C)(COP(=O)(O)OP(=O)(O)OC[C@H]1O[C@@H](n2cnc3c(N)ncnc32)[C@H](O)[C@@H]1OP(=O)(O)O)[C@@H](O)C(=O)NCCC(=O)NCCSC(=O)c1ccccc1")
"No activity"
>>> reportedresult("CC(C)C(=O)SCCNC(=O)CCNC(=O)[C@H](O)C(C)(C)COP(=O)(O)OP(=O)(O)OC[C@H]1O[C@@H](n2cnc3c(N)ncnc32)[C@H](O)[C@@H]1OP(=O)(O)O")
"No activity"
